Items are presented alongside their recorded Radioactivity distribution Remaining whole body.
Assay: In vivo kinetics experiment (radioactivity distribution)
Parameters: species or system Wistar male rat
Settings: 30 min after administration; rat i.v.; mean ± SD
Answer with the figure and its unit, nothing else.

Task item: Please report the measured Radioactivity distribution Remaining whole body for CC(C)n1c(-c2cncc(Cn3ccnc3)c2)nc2ccc([123I])cc21 [[^123I] 606]
Reply: 0.24 ± 0.01 % ID/g

###

Test: In vivo kinetics experiment (radioactivity distribution)
Parameters: species or system Wistar male rat
Settings: rat, caudal vein, 60 min after administration
Measurement Name: Adrenal gland/kidney ratio of radioactivity accumulation
Provide a numeric answer; units are not to be included.

Task item: Please report the measured Adrenal gland/kidney ratio of radioactivity accumulation for Fc1cc2nc(-c3cncc(Cn4ccnc4)c3)n(CCC[18F])c2cc1Cl [[^18F] 500]
Reply: 17.62

Task item: Please report the measured Adrenal gland/kidney ratio of radioactivity accumulation for Fc1cc2nc(-c3cncc(Cn4ccnc4)c3)n(CC[18F])c2cc1Br [[^18F] 200]
Reply: 18.05

Task item: Please report the measured Adrenal gland/kidney ratio of radioactivity accumulation for [123I]c1ccc2nc(-c3cncc(Cn4ccnc4)c3)n(C3CC3)c2c1 [[^123I] 602]
Reply: 18.87

Task item: Please report the measured Adrenal gland/kidney ratio of radioactivity accumulation for [123I]c1ccc2nc(-c3cncc(Cn4ccnn4)c3)n(C3CC3)c2c1 [[^123I] 603]
Reply: 13.73

Task item: Please report the measured Adrenal gland/kidney ratio of radioactivity accumulation for Fc1cc2nc(-c3cncc(Cn4ccnc4)c3)n(CC[18F])c2cc1Cl [[^18F] 100]
Reply: 18.96

As a next step, examine the compound that follows.
Task item: Please report the measured Adrenal gland/kidney ratio of radioactivity accumulation for FCCn1c(-c2cncc(Cn3ccnc3)c2)nc2cc(F)c([123I])cc21 [[^123I] 400]
Reply: 18.87

###

Assay: In vivo kinetics experiment (radioactivity distribution)
Design: species or system Wistar male rat
Conditions: 60 min after administration; rat i.v.; mean ± SD
Measurement Name: Adrenal gland/liver ratio of radioactivity accumulation
Provide a numeric answer; units are not to be included.

Task item: Please report the measured Adrenal gland/liver ratio of radioactivity accumulation for COc1cc([123I])cc2c1nc(-c1cncc(Cn3ccnc3)c1)n2C1CC1 [[^123I] 609]
Reply: 3.99

Task item: Please report the measured Adrenal gland/liver ratio of radioactivity accumulation for Fc1cc2nc(-c3cncc(Cn4ccnc4)c3)n(Cc3ccc([123I])cc3)c2cc1Cl [[^123I] 605]
Reply: 0.88

Task item: Please report the measured Adrenal gland/liver ratio of radioactivity accumulation for FCCn1c(-c2cncc(Cn3cncc3[123I])c2)nc2cc(F)c(Cl)cc21 [[^123I] 610]
Reply: 20.57

***
Task item: Please report the measured Adrenal gland/liver ratio of radioactivity accumulation for CCn1c(-c2cncc(Cn3ccnc3)c2)nc2ccc([123I])cc21 [[^123I] 608]
Reply: 25.91

Task item: Please report the measured Adrenal gland/liver ratio of radioactivity accumulation for FCCn1c(-c2cncc(Cn3ccnc3)c2)nc2ccc([123I])cc21 [[^123I] 604]
Reply: 19.61

Task item: Please report the measured Adrenal gland/liver ratio of radioactivity accumulation for Cn1c(-c2cncc(Cn3ccnc3)c2)nc2ccc([123I])cc21 [[^123I] 607]
Reply: 27.59

Task item: Please report the measured Adrenal gland/liver ratio of radioactivity accumulation for CC(C)n1c(-c2cncc(Cn3ccnc3)c2)nc2ccc([123I])cc21 [[^123I] 606]
Reply: 8.81

Task item: Please report the measured Adrenal gland/liver ratio of radioactivity accumulation for COC(=O)c1cncn1[C@H](C)c1ccc(I)cc1 [[^123I] IMTO, (R)-[^123I]iodometomidate, reference compound]
Reply: 14.20

###

Test: In vivo kinetics experiment (radioactivity distribution)
Design: species or system Wistar male rat
Conditions: 30 min after administration; rat i.v.; mean ± SD
Description: Each of Compounds [^18F] 100, [^18F] 200, [^123I] 400, [^18F] 500, and [^123I] 601 to 610 obtained by the methods described in Examples 2, 4, 7, 9, 11, 13, 15, 17, 19, 21, 23, 25, 27, and 29, or [^123I] […] From the thus sacrificed rat, blood and organs (heart, lung, stomach, liver, spleen, small intestine, large intestine, kidney, bladder (including urine), muscle (lower limbs), brain, adrenal gland, testis, fat, femur, or thyroid gland) were excised, and the weights thereof were then measured. […]
Measurement Name: Radioactivity distribution Kidney (% ID/g)
Use % ID/g as the unit, but write only the number.

Here's what some known entries look like.
Task item: Please report the measured Radioactivity distribution Kidney for Fc1cc2nc(-c3cncc(Cn4ccnc4)c3)n(Cc3ccc([123I])cc3)c2cc1Cl [[^123I] 605]
Reply: 1.18

Task item: Please report the measured Radioactivity distribution Kidney for FCCn1c(-c2cncc(Cn3ccnc3)c2)nc2ccc([123I])cc21 [[^123I] 604]
Reply: 1.65

Task item: Please report the measured Radioactivity distribution Kidney for FCCn1c(-c2cncc(Cn3cncc3[123I])c2)nc2cc(F)c(Cl)cc21 [[^123I] 610]
Reply: 0.55

Task item: Please report the measured Radioactivity distribution Kidney for Cn1c(-c2cncc(Cn3ccnc3)c2)nc2ccc([123I])cc21 [[^123I] 607]
Reply: 1.24

Task item: Please report the measured Radioactivity distribution Kidney for CC(C)n1c(-c2cncc(Cn3ccnc3)c2)nc2ccc([123I])cc21 [[^123I] 606]
Reply: 1.01

Task item: Please report the measured Radioactivity distribution Kidney for COC(=O)c1cncn1[C@H](C)c1ccc(I)cc1 [[^123I] IMTO, (R)-[^123I]iodometomidate, reference compound]
Reply: 1.10

***
Task item: Please report the measured Radioactivity distribution Kidney for COc1cc([123I])cc2c1nc(-c1cncc(Cn3ccnc3)c1)n2C1CC1 [[^123I] 609]
Reply: 1.00

Task item: Please report the measured Radioactivity distribution Kidney for CCn1c(-c2cncc(Cn3ccnc3)c2)nc2ccc([123I])cc21 [[^123I] 608]
Reply: 1.82

###

Experiment: In vivo kinetics experiment (radioactivity distribution)
Design: species or system Wistar male rat
Details: rat, caudal vein, 60 min after administration
Items are presented alongside their recorded Adrenal gland/small intestine ratio of radioactivity accumulation.
Provide a numeric answer; units are not to be included.

Here's what some known entries look like.
Task item: Please report the measured Adrenal gland/small intestine ratio of radioactivity accumulation for Fc1cc2nc(-c3cncc(Cn4ccnc4)c3)n(CC[18F])c2cc1Cl [[^18F] 100]
Reply: 7.66

Task item: Please report the measured Adrenal gland/small intestine ratio of radioactivity accumulation for Fc1cc2nc(-c3cncc(Cn4ccnc4)c3)n(CC[18F])c2cc1Br [[^18F] 200]
Reply: 5.43

Task item: Please report the measured Adrenal gland/small intestine ratio of radioactivity accumulation for Fc1cc2nc(-c3cncc(Cn4ccnc4)c3)n(CCC[18F])c2cc1Cl [[^18F] 500]
Reply: 4.17

***
Task item: Please report the measured Adrenal gland/small intestine ratio of radioactivity accumulation for FCCn1c(-c2cncc(Cn3ccnc3)c2)nc2cc(F)c([123I])cc21 [[^123I] 400]
Reply: 6.64

Task item: Please report the measured Adrenal gland/small intestine ratio of radioactivity accumulation for [123I]c1ccc2nc(-c3cncc(Cn4ccnc4)c3)n(C3CC3)c2c1 [[^123I] 602]
Reply: 6.64

Task item: Please report the measured Adrenal gland/small intestine ratio of radioactivity accumulation for [123I]c1ccc2nc(-c3cncc(Cn4ccnn4)c3)n(C3CC3)c2c1 [[^123I] 603]
Reply: 2.42

###

Test system: human adrenal gland section expressing aldosterone-producing adenoma
Assay: In vitro autoradiography using human adrenal adenoma
Assay type: binding
Conditions: section of FIG. 17(b), site 72b
Measurement Name: B1 (PSL value, normal adrenal cortex)
Provide a numeric answer; units are not to be included.

Task item: # return B1 (PSL value, normal adrenal cortex) of COc1cc([123I])cc2c1nc(-c1cncc(Cn3ccnc3)c1)n2C1CC1 [[^123I] 609] (system: human adrenal gland section expressing aldosterone-producing adenoma)
Reply: 4479

Task item: # return B1 (PSL value, normal adrenal cortex) of FCCn1c(-c2cncc(Cn3cncc3[123I])c2)nc2cc(F)c(Cl)cc21 [[^123I] 610] (system: human adrenal gland section expressing aldosterone-producing adenoma)
Reply: 2931

Task item: # return B1 (PSL value, normal adrenal cortex) of CCn1c(-c2cncc(Cn3ccnc3)c2)nc2ccc([123I])cc21 [[^123I] 608] (system: human adrenal gland section expressing aldosterone-producing adenoma)
Reply: 3303

Task item: # return B1 (PSL value, normal adrenal cortex) of [123I]c1ccc2nc(-c3cncc(Cn4ccnn4)c3)n(C3CC3)c2c1 [[^123I] 603] (system: human adrenal gland section expressing aldosterone-producing adenoma)
Reply: 2027

Task item: # return B1 (PSL value, normal adrenal cortex) of Cn1c(-c2cncc(Cn3ccnc3)c2)nc2ccc([123I])cc21 [[^123I] 607] (system: human adrenal gland section expressing aldosterone-producing adenoma)
Reply: 5945

***
Task item: # return B1 (PSL value, normal adrenal cortex) of FCCn1c(-c2cncc(Cn3ccnc3)c2)nc2ccc([123I])cc21 [[^123I] 604] (system: human adrenal gland section expressing aldosterone-producing adenoma)
Reply: 1813

Task item: # return B1 (PSL value, normal adrenal cortex) of CC(C)n1c(-c2cncc(Cn3ccnc3)c2)nc2ccc([123I])cc21 [[^123I] 606] (system: human adrenal gland section expressing aldosterone-producing adenoma)
Reply: 1913

Task item: # return B1 (PSL value, normal adrenal cortex) of Fc1cc2nc(-c3cncc(Cn4ccnc4)c3)n(Cc3ccc([123I])cc3)c2cc1Cl [[^123I] 605] (system: human adrenal gland section expressing aldosterone-producing adenoma)
Reply: 4318

Task item: # return B1 (PSL value, normal adrenal cortex) of COC(=O)c1cncn1[C@H](C)c1ccc(I)cc1 [[^123I] IMTO, (R)-[^123I]iodometomidate, reference compound] (system: human adrenal gland section expressing aldosterone-producing adenoma)
Reply: 8453
